Values were extracted from paper PMC4618641.

- Tested on: DU145TXR cells
- METHOD: Intrinsic cytotoxicity assay
- Format: cell-based, human
- PROTOCOL_CONDITIONS: Homo sapiens, 48 h, read-out: IC50 (compound alone, estimated)
So I've got a bunch of compounds here, and I need their pIC50 values.
pIC50 here: minus log base 10 of the concentration, concentration in moles per litre.

**Query** Given the entry CCOC(=O)C1(CCCc2ccccc2)CCCN(C(=O)c2ccc3c(c2)OCO3)C1 (stereo not shown) , report its measured pIC50.
**Result** 3.97

**Query** Given the entry CCC(C(=O)N1CCN(c2ccc(OC)cc2)CC1)n1nc(C)c2sc3ccccc3c2c1=O (stereo not shown) , report its measured pIC50.
**Result** 3.39

**Query** Given the entry Cc1cc(C)c(-c2cc(NC(=O)CSc3n[nH]c(C4CC4)n3)n(-c3ccccc3)n2)cc1C , report its measured pIC50.
**Result** 4.41

**Query** Given the entry COc1ccc(CCN(C)CCCC(C#N)(c2ccc(OC)c(OC)c2)C(C)C)cc1OC (stereo not shown) [Verapamil, verapamil, reference compound] , report its measured pIC50.
**Result** 3.68

* * *

- System: HFL1 cells
- METHOD: Intrinsic cytotoxicity assay
- Type: cell-based, human
- PROTOCOL_CONDITIONS: Homo sapiens, HFL1, 48 h, read-out: IC50 (compound alone, estimated)
So I've got a bunch of compounds here, and I need their IC50 values.
Give the figure together with its unit, number first.

**Query** Given the entry Cc1cc(C)c(-c2cc(NC(=O)CSc3n[nH]c(C4CC4)n3)n(-c3ccccc3)n2)cc1C , report its measured IC50.
**Result** 42 µM

**Query** Given the entry CCOC(=O)C1(CCCc2ccccc2)CCCN(C(=O)c2ccc3c(c2)OCO3)C1 (stereo not drawn) , report its measured IC50.
**Result** 62 µM

**Query** Given the entry CCC(C(=O)N1CCN(c2ccc(OC)cc2)CC1)n1nc(C)c2sc3ccccc3c2c1=O (stereo not drawn) , report its measured IC50.
**Result** 133 µM
